Below, each entry is listed alongside its reported inhibition.
# experiment summary: M. tuberculosis growth inhibition, HTS (AID 449762);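 note: bacterial growth assessed after seven days of incubation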
# stated conditions: M. tuberculosis H37Rv growth inhibition, 7H9 media; at 25 µM; active compounds read high
Screen size: about 330,000 compounds; about 1,900 (0.58%) were called active. Another 4% or so got no clear call; they are omitted. These entries were drawn from the full list. Potency and affinity values are given separately.
property measured: inhibition (%)

INSERT INTO results (compound, measure_unit, experimental_value) VALUES
  ('COc1ccccc1C(=O)N/C(=C\c1ccccc1)C(=O)NC(Cc1ccccc1)C(=O)O (centres undefined)', '%', -6.9),
  ('NC(=S)N/N=C/c1ccc(-c2cc(Cl)cc(Cl)c2)o1', '%', -4.69),
  ('CC1(C)C[C@H](O)[C@@]23C[C@@H](OC2=O)[C@]2(C)C(=CCC4[C@@]5(C)CC[C@H](O)C(C)(C)C5CC[C@]42C)[C@@H]3C1 (some centres undefined)', '%', 3.65),
  ('Cc1ccc(-n2nnnc2SCC(=O)c2c(N)n(C3CC3)c(=O)[nH]c2=O)c(C)c1', '%', -6.46),
  ('Cn1c(NCC(O)c2ccccc2)nc2c1c(=O)n(Cc1ccc(Cl)cc1)c(=O)n2C (centres undefined)', '%', 48.9),
  ('CCNC(=S)N/N=C/c1ccc(-c2ccccc2)o1', '%', -5.23),
  ('C=CCOc1ccc(CNc2nccs2)cc1OC', '%', -5.03),
  ('CCCOc1ccc2[nH]c(C(=O)N/N=C/c3cc(OC)c(OC)c(OC)c3)cc2c1', '%', 4.27),
  ('O=C(CNC(=O)c1cccs1)OCc1ccc(Br)cc1', '%', -2.09),
  ('Cc1cccc(C)c1NC(=O)N1CCCCCCC1', '%', -5.98),
  ('CCOC(=O)C(C)Sc1ccc2nnc(CCNS(=O)(=O)c3ccc(C)cc3)n2n1 (centres undefined)', '%', 1.94),
  ('CCOc1ccc(S(=O)(=O)NCCC(=O)N2CCC(Cc3ccccc3)CC2)cc1', '%', 44.3),
  ('O=C(Nc1ccccc1)N(C1=NCCC1)c1ccc(OC(F)F)cc1', '%', -0.82),
  ('COc1ccc(N(C(=O)Nc2ccc(Cl)cc2)C2=NCCC2)cc1', '%', 42.5);

* * *

# experiment summary: M. tuberculosis growth inhibition, HTS (AID 449762);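 note: bacterial growth assessed after seven days of incubation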
# stated conditions: M. tuberculosis H37Rv growth inhibition, 7H9 media; at 25 µM; active compounds read high
The campaign covered roughly 330,000 compounds. About 1,900 (0.58%) were called active. Roughly 4% stayed inconclusive and do not appear here. The list is a sample of the results. Entries with a potency or affinity are not part of this list.
Below, each entry is listed alongside its reported inhibition.
property measured: inhibition (%)

INSERT INTO assay_data (molecule, property_measured, experimental_value) VALUES
  ('CCS(=O)(=O)Nc1ccc(C2=NN(C(=O)c3ccco3)C(c3cccc(F)c3)C2)cc1 (centres undefined)', 'inhibition', 23.2),
  ('Cc1cc(C)n(-c2ccc(C(=O)Nc3ccc4c(c3)OCO4)cc2)n1', 'inhibition', 12.7),
  ('Cc1ccc(CNC(=O)NC2CCCCC2)cc1', 'inhibition', -3.64),
  ('Cc1cccc(C2=N/C(=C\c3cccnc3)C(=O)O2)c1', 'inhibition', -3.98),
  ('C/C(=C\C(=S)Nc1ccccc1)Nc1cccc2ccccc12', 'inhibition', 64.1),
  ('CCC(C)c1ccc(S(=O)(=O)N2CCN(CC(O)CN3CCOCC3)CC2)cc1 (centres undefined)', 'inhibition', -16.5),
  ('C#CCOCCOCCOCCNc1nc(N2CCN(C(=O)[C@H](CCC(=O)O)n3cc(C(N)Cc4ccc(O)cc4)nn3)CC2)nc(N2CCN(C(=O)[C@H](Cc3cc4ccccc4[nH]3)n3cc(C(N)CC(C)C)nn3)CC2)n1 (some centres undefined)', 'inhibition', -1.44),
  ('COC(=O)c1cc(S(=O)(=O)Nc2nn(C)c3ccccc23)oc1C', 'inhibition', 1.72),
  ('N#CCCn1cc(C(=O)Nc2ccc(C(=O)O)cc2)c(-c2cc3ccccc3o2)n1', 'inhibition', -8.4),
  ('NC(=O)C1c2ccccc2Oc2ccccc21', 'inhibition', -5.49),
  ('CN(CC(=O)Nc1ccccc1Cl)C(=O)CSc1ncc(C(F)(F)F)cc1Cl', 'inhibition', 3.84),
  ('COc1ccc(Cl)cc1NC(=O)CN(C)C(=O)Cn1c(=O)oc2ccccc21', 'inhibition', 1.38),
  ('CCO[C@@H]1OC(C(=O)NCc2ccccc2)=C[C@H](C)[C@H]1CCCO', 'inhibition', 0.33),
  ('CC(=O)N1CCn2c3c(c4cc(C)ccc42)CCCC31 (centres undefined)', 'inhibition', 4.84),
  ('O=C(c1cccc([N+](=O)[O-])c1)N1CCOCC1', 'inhibition', 5.5),
  ('Cc1ccc2c(c1)c1c3n2CCN(C(=O)CN2CCN(C)CC2)C3CCC1 (centres undefined)', 'inhibition', -3.37),
  ('COc1ccc(CNC(=O)C2(C)Cc3ccccc3C(=O)O2)cc1 (centres undefined)', 'inhibition', -2.25),
  ('COC(=O)C1=C(C)N(Cc2ccccc2)C(=NCc2cc(OC)c(OC)c(OC)c2)N[C@H]1c1ccccc1', 'inhibition', -1.97),
  ('CSC(=NC#N)N1CCN(c2c(C)cccc2C)CC1', 'inhibition', -2.97),
  ('COc1ccc(-n2c(SCC(=O)N3CCc4ccccc43)nnc2-c2c[nH]c3ccccc23)cc1', 'inhibition', 7.85),
  ('C#CCOCCOCCOCCNc1nc(N2CCN(C(=O)C(CCC(=O)O)n3cc(C(N)CC(C)C)nn3)CC2)nc(N2CCN(C(=O)C(Cc3cc4ccccc4[nH]3)n3cc(C(N)Cc4ccc(O)cc4)nn3)CC2)n1 (centres undefined)', 'inhibition', 2.57),
  ('CC(C)(C)[C@@H]1C=C(C(N)=O)O[C@H](OCc2ccc(CO)cc2)C1', 'inhibition', 3.59),
  ('O=C(CCC(=O)OCc1ccc([N+](=O)[O-])cc1)Nc1ccccc1Cl', 'inhibition', -11.9),
  ('COc1ccc(C2Nc3ccccc3NC3=C2C(=O)CC(C)(C)C3)c(OC)c1OC (centres undefined)', 'inhibition', 8.53);
